Record form. Attribute: melting point. Fill in for each entry.

Some entries whose results are on file:
O=C1C=C(c2cccc(C(F)(F)F)c2)CO1 = 124 to 125 °C
O=C1C=C(c2ccc(OC(F)(F)F)cc2)CO1 = 122 to 123 °C
Cc1noc(C)c1C1=CC(=O)OC1 = 101 to 103 °C

From here, focus on the item given below.
**Q:** Could you tell me which melting point is on file for O=C1C=C(c2ccsc2)CO1 ?
**A:** 130.5 to 132 °C

====

- System: V. fischeri luxRI system (AHL quorum sensing, gfp fused to luxI promoter)
- procedure.text: N-acylated homoserine lactone (AHL) quorum sensing assay, GFP reporter strain
- Assay type: cell-based, E. coli
- stated.conditions: inhibition index: slope of ID40 vs AHL concentration; lower is better
Record form. Attribute: AIC40. Fill in for each entry.
Numbers only.

O=C1C=C(c2ccc(F)cc2F)CO1 = 7.6

Each of the following entries comes with a recorded value; kindly state AIC40 for each.
1. O=C1C=C(c2ccc(C(F)(F)F)cc2)CO1
2. O=C1C=C(c2ccc(F)cc2)CO1
3. O=C1C=C(c2ccsc2)CO1

**A:**
1. 0.77
2. 14.39
3. 4.9

Each of the following entries comes with a recorded value; kindly state AIC40 for each.
1. O=C1C=C(c2cccs2)CO1
2. O=C1C=C(c2ccc(OC(F)(F)F)cc2)/C(=C/c2ccc(OC(F)(F)F)cc2)O1

**A:**
24.6
4.4

**Q:** Could you tell me which AIC40 is on file for O=C1C=C(c2ccc(OC(F)(F)F)cc2)CO1 ?
**A:** 5.9

====

- Test system: V. fischeri luxRI system (AHL quorum sensing, gfp fused to luxI promoter)
- procedure.text: N-acylated homoserine lactone (AHL) quorum sensing assay, GFP reporter strain
- Format: cell-based, E. coli
- stated.conditions: 3 nM OHHL; value in brackets; amount lowering GFP activity to 40%
Label met for high-side ID40 at 3 nM OHHL (at or above 40) and not met for low-side ID40 at 3 nM OHHL (below it).

O=C1C=C(c2ccc(OC(F)(F)F)cc2)/C(=C/c2ccc(OC(F)(F)F)cc2)O1 = met
O=C1C=C(c2ccc(C(F)(F)F)cc2)CO1 = not met
O=C1C=C(c2ccc(OC(F)(F)F)cc2)CO1 = not met
O=C1C=C(c2cccs2)CO1 = met

**Q:** Form field: ID40 at 3 nM OHHL at least 40? Entry: O=C1C=C(c2ccc(F)cc2F)CO1
**A:** not met

====

Record form. Attribute: melting point. Fill in for each entry.

O=C1C=C(c2ccc(Br)cc2)CN1 [Compound 35, 4-(4′-Bromophenyl)-pyrrol-2(5H)-one] = 233 to 235 °C (dec.)
O=C1C=C(c2ccc(C(F)(F)F)cc2)/C(=C/c2ccc(C(F)(F)F)cc2)O1 [Compound 17] = 127.5 to 129 °C
Cn1cc(C2=CC(=O)OC2)cn1 [Compound 12, 4-(N-Methylpyrazol-4′-yl)furan-2(5H)-one] = 181 to 182 °C

**Q:** Could you tell me which melting point is on file for O=C1C=C(c2ccccc2C(F)(F)F)CO1 [Compound 9] ?
**A:** 49 to 50 °C

====

parameter: melting point

Each of the following entries comes with a recorded value; kindly state melting point for each.
1. O=C1C=C(c2ccc(C(F)(F)F)cc2C(F)(F)F)CO1
2. O=C1C=C(Br)CO1

**A:**
1. 116 to 117 °C
2. 72 to 74 °C

Each of the following entries comes with a recorded value; kindly state melting point for each.
1. O=C1C=C(c2ccccc2)/C(=C/c2cccc(C(F)(F)F)c2)O1
2. O=C1C=C(c2ccc(F)cc2)CN1

**A:**
1: 108 to 110 °C; 2: 190 °C

**Q:** Could you tell me which melting point is on file for O=C1C=C(c2cccs2)CO1 ?
**A:** 94 to 96.5 °C
